Exercise: for every item that follows, state its recorded CC50.
- test-details: Cytotoxicity against human HuH5.2 cells
- Type: cell-based, Huh-5-2

Guide cases for CC50, answers given:
1. COC(=O)c1nc(C#CC2(O)CCCC2)n([C@@H]2O[C@H](COC(C)=O)[C@@H](OC(C)=O)[C@H]2OC(C)=O)n1: > 105 µM
2. NC(=O)c1nc(C#Cc2ccc(F)cc2)n(COCCO)n1: > 160 µM
3. NC(=O)c1nc(C#Cc2ccc(C(F)(F)F)cc2)n([C@@H]2O[C@H](CO)[C@@H](O)[C@H]2O)n1: 82.5 µM

As a next step, examine the molecule that follows.
stdin: Looking for the measured CC50 of `NC(=O)c1nc(C#Cc2ccccc2)n(COCCO)n1` , can you help?
stdout: > 170 µM
